# Species: Homo sapiens
# Protocol Details: Selectivity ratio of Ki for displacement of [125I]IABN from human D2L receptor expressed in HEK cells to Ki for displacement of [125I]IABN from human D3R expressed in HEK cells
# Type: cell-based
Hi! Could you tag entries with Ratio Ki below 2 as Condition met, and those at or above as Condition not met? Much appreciated.

Query Smiles | Category
C=CCO[C@@H]1C[C@@H](CNC(=O)c2cc(CCCF)cc(OC)c2OC)N(CC=C)C1 | Condition not met
C=CCN1C[C@H](OCCN)C[C@H]1CNC(=O)c1cc(CCCF)cc(OC)c1OC | Condition not met
C=CCN1C[C@H](OC(=O)NCc2ccccc2)C[C@H]1CNC(=O)c1cc(CCCF)cc(OC)c1OC | Condition met
C=CCN1C[C@H](OC(=O)Nc2ccc(-c3ccsc3)cc2)C[C@H]1CNC(=O)c1cc(CCCF)cc(OC)c1OC | Condition not met
C=CCN1C[C@H](OCCCCN)C[C@H]1CNC(=O)c1cc(CCCF)cc(OC)c1OC | Condition met
C=CCN1C[C@H](OCCCNC(=O)c2ccc(-c3ccsc3)cc2)C[C@H]1CNC(=O)c1cc(CCCF)cc(OC)c1OC | Condition not met
C=CCN1C[C@H](OC(=O)Nc2ccc(-c3ccccn3)cc2)C[C@H]1CNC(=O)c1cc(CCCF)cc(OC)c1OC | Condition met
C=CCN1C[C@H](OCc2ccc(C(F)(F)F)cc2)C[C@H]1CNC(=O)c1cc(CCCF)cc(OC)c1OC | Condition met
C=CCN1C[C@H](OC(=O)Nc2cccc(N(C)C)c2)C[C@H]1CNC(=O)c1cc(CCCF)cc(OC)c1OC | Condition met
C=CCN1C[C@H](OCc2ccncc2)C[C@H]1CNC(=O)c1cc(CCCF)cc(OC)c1OC | Condition met
C=CCN1C[C@H](OC(=O)NCCc2ccccc2)C[C@H]1CNC(=O)c1cc(CCCF)cc(OC)c1OC | Condition not met
C=CCN1C[C@H](OC(=O)Nc2ccsc2)C[C@H]1CNC(=O)c1cc(CCCF)cc(OC)c1OC | Condition met
C=CCN1C[C@H](OC(=O)Nc2ccccc2C)C[C@H]1CNC(=O)c1cc(CCCF)cc(OC)c1OC | Condition met
C=CCN1CC[C@H](OCc2ccccc2)[C@H]1CNC(=O)c1cc(CCCF)cc(OC)c1OC | Condition not met
C=CCN1C[C@H](OC(=O)Nc2ccoc2)C[C@H]1CNC(=O)c1cc(CCCF)cc(OC)c1OC | Condition met
C=CCN1C[C@@H](OC(=O)Nc2ccc(-c3ccsc3)cc2)C[C@H]1CNC(=O)c1cc(CCCF)cc(OC)c1OC | Condition not met
C=CCN1CC[C@H](OCCCN)[C@H]1CNC(=O)c1cc(CCCF)cc(OC)c1OC | Condition not met

====

// values below are log10 of Ki; system is D(3) dopamine receptor (Homo sapiens, UniProt P35462)
Sequence (P35462 whole entry): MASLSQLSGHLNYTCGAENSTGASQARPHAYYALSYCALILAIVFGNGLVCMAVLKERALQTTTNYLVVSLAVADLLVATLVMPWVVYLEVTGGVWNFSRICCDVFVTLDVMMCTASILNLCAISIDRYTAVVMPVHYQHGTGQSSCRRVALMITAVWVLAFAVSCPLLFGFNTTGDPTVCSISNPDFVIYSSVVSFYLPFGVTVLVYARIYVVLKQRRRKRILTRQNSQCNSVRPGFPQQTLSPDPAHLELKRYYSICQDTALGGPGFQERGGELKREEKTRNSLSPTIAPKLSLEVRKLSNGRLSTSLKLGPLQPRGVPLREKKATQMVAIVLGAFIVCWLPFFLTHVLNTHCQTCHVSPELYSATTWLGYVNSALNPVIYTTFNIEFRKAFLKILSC
Experimental Readout: log10 of Ki (log10 of the value in nM)

Query Smiles | Experimental Readout | Number
C=CCN1C[C@H](OCCCCN)C[C@H]1CNC(=O)c1cc(CCCF)cc(OC)c1OC | log10 of Ki | 0.18
C=CCN1C[C@H](OC(=O)Nc2ccoc2)C[C@H]1CNC(=O)c1cc(CCCF)cc(OC)c1OC | log10 of Ki | 1.18
C=CCN1C[C@H](OCCCN)C[C@@H]1CNC(=O)c1cc(CCCF)cc(OC)c1OC | log10 of Ki | 3.29
C=CCN1C[C@H](OCc2ccc(F)cc2)C[C@H]1CNC(=O)c1cc(CCCF)cc(OC)c1OC | log10 of Ki | 0.67
C=CCN1C[C@H](OC(=O)Nc2ccc(-c3ccsc3)cc2)C[C@@H]1CNC(=O)c1cc(CCCF)cc(OC)c1OC | log10 of Ki | 3.83
C=CCN1C[C@H](OC(=O)Nc2ccccc2C)C[C@H]1CNC(=O)c1cc(CCCF)cc(OC)c1OC | log10 of Ki | 0.92
C=CCN1C[C@H](OC(=O)Nc2ccccc2)C[C@H]1CNC(=O)c1cc(CCCF)cc(OC)c1OC | log10 of Ki | 1.16
C=CCN1C[C@H](OC(=O)NCCc2ccccc2)C[C@H]1CNC(=O)c1cc(CCCF)cc(OC)c1OC | log10 of Ki | 1.11
C=CCN1C[C@H](OCCN)C[C@H]1CNC(=O)c1cc(CCCF)cc(OC)c1OC | log10 of Ki | 0.98

====

Recorded IC50 by entry
# Assay System: D(3) dopamine receptor (Homo sapiens, UniProt P35462)
# Protocol Details: Binding affinity to human D3 receptor expressed in CHO-K1 cells assessed as inhibition of dopamine-induced beta-arrestin recruitment preincubated for 30 mins followed by dopamine addition and measured after 90 mins by pathhunter assay
Experimental Readout: IC50 (nM)

Query Smiles | Measurement Unit | Number
C=CCN1C[C@H](OCCCN)C[C@H]1CNC(=O)c1cc(CCCF)cc(OC)c1OC | nM | 1.3
CCN1C[C@H](OCCCN)C[C@H]1CNC(=O)c1cc(CCCF)cc(OC)c1OC | nM | 3.3
C=CCN1C[C@H](OCCCNC(=O)c2ccc(-c3ccsc3)cc2)C[C@H]1CNC(=O)c1cc(CCCF)cc(OC)c1OC | nM | 8.1
CCN1C[C@H](OC(=O)Nc2ccc(-c3ccsc3)cc2)C[C@H]1CNC(=O)c1cc(CCCF)cc(OC)c1OC | nM | 62.7
C=CCN1C[C@H](OC(=O)Nc2ccc(-c3ccccn3)cc2)C[C@H]1CNC(=O)c1cc(CCCF)cc(OC)c1OC | nM | 79.2
C=CCN1C[C@H](OC(=O)Nc2ccc(-c3ccsc3)cc2)C[C@H]1CNC(=O)c1cc(CCCF)cc(OC)c1OC | nM | 169
C=CCN1C[C@H](OCCN)C[C@H]1CNC(=O)c1cc(CCCF)cc(OC)c1OC | nM | 11

====

# Assay System: D(2) dopamine receptor (Homo sapiens, UniProt P14416)
# Sequence (P14416 whole entry): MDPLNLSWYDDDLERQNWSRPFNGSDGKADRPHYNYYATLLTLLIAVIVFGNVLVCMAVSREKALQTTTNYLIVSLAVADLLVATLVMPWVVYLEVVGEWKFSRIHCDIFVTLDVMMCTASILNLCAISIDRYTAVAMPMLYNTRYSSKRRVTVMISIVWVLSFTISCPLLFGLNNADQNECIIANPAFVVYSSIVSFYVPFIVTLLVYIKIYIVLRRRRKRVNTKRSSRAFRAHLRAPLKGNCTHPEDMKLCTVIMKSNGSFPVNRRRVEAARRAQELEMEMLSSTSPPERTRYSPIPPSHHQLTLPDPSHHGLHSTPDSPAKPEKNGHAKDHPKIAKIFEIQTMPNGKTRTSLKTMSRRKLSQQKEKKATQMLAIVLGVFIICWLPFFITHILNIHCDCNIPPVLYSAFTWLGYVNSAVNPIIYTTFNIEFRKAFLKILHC
# Protocol Details: Displacement of [125I]IABN from human D2L receptor expressed in HEK cells measured after 60 mins by gamma counting method
# Assay type: cell-based
Param label: returns y when Ki < 0.008 µM, returns n otherwise, including exact equality.

Query Smiles | Category
C=CCN1C[C@H](OC(=O)Nc2ccccn2)C[C@H]1CNC(=O)c1cc(CCCF)cc(OC)c1OC | n
C=CCN1C[C@H](OC(=O)NCc2ccccc2)C[C@H]1CNC(=O)c1cc(CCCF)cc(OC)c1OC | n
C=CCN1C[C@H](OC(=O)Nc2cc(C)ccc2OC)C[C@H]1CNC(=O)c1cc(CCCF)cc(OC)c1OC | n
C=CCN1C[C@H](OCCN)C[C@H]1CNC(=O)c1cc(CCCF)cc(OC)c1OC | n
C=CCN1C[C@H](OC(=O)NCCc2ccccc2)C[C@H]1CNC(=O)c1cc(CCCF)cc(OC)c1OC | n
C=CCN1C[C@H](OCc2ccncc2)C[C@H]1CNC(=O)c1cc(CCCF)cc(OC)c1OC | y
C=CCN1C[C@H](OC(=O)Nc2ccc(-c3ccccn3)cc2)C[C@H]1CNC(=O)c1cc(CCCF)cc(OC)c1OC | n
C=CCN1C[C@H](OC(=O)Nc2ccc(-c3ccsc3)cc2)C[C@H]1CNC(=O)c1cc(CCCF)cc(OC)c1OC | n
C=CCN1C[C@H](OC(=O)Nc2ccoc2)C[C@H]1CNC(=O)c1cc(CCCF)cc(OC)c1OC | n
C=CCN1C[C@H](OCCCCN)C[C@H]1CNC(=O)c1cc(CCCF)cc(OC)c1OC | y
C=CCN1C[C@H](OCc2cccnc2)C[C@H]1CNC(=O)c1cc(CCCF)cc(OC)c1OC | y
CCN1C[C@H](OC(=O)Nc2ccc(-c3ccsc3)cc2)C[C@H]1CNC(=O)c1cc(CCCF)cc(OC)c1OC | n
C=CCN1C[C@H](OC(=O)Nc2ccsc2)C[C@H]1CNC(=O)c1cc(CCCF)cc(OC)c1OC | y
C=CCN1CC[C@H](OCc2ccccc2)[C@H]1CNC(=O)c1cc(CCCF)cc(OC)c1OC | y
C=CCN1C[C@H](OCCCN)C[C@H]1CNC(=O)c1cc(CCCF)cc(OC)c1OC | n
C=CCN1C[C@H](OC(=O)Nc2cccnc2)C[C@H]1CNC(=O)c1cc(CCCF)cc(OC)c1OC | n
C=CCN1C[C@H](OC(=O)Nc2ccccc2C)C[C@H]1CNC(=O)c1cc(CCCF)cc(OC)c1OC | n
C=CCN1C[C@H](OCCCN)C[C@@H]1CNC(=O)c1cc(CCCF)cc(OC)c1OC | n

====

This listing pairs molecules with measured Ratio Ki.
# Species on record: Homo sapiens
# Protocol Details: Selectivity ratio of Ki for displacement of [125I]IABN from human D2L receptor expressed in HEK cells to Ki for displacement of [125I]IABN from human D3R expressed in HEK cells
# Type: cell-based

Query Smiles | Ratio Ki
C=CCN1C[C@H](OC(=O)Nc2ccc(-c3ccsc3)cc2)C[C@@H]1CNC(=O)c1cc(CCCF)cc(OC)c1OC | > 6
C=CCN1C[C@H](OCCCN)C[C@H]1CNC(=O)c1cc(CCCF)cc(OC)c1OC | 2.2
C=CCN1C[C@H](OCCO)C[C@H]1CNC(=O)c1cc(CCCF)cc(OC)c1OC | 3.5
C=CCN1C[C@H](OC(=O)Nc2ccccn2)C[C@H]1CNC(=O)c1cc(CCCF)cc(OC)c1OC | 2.4
C=CCN1C[C@@H](OC(=O)Nc2ccc(-c3ccsc3)cc2)C[C@@H]1CNC(=O)c1cc(CCCF)cc(OC)c1OC | 6.7
C=CCN1C[C@H](OC(=O)Nc2cc(C)ccc2OC)C[C@H]1CNC(=O)c1cc(CCCF)cc(OC)c1OC | 1.5
C=CCN1C[C@H](OC(=O)Nc2cccnc2)C[C@H]1CNC(=O)c1cc(CCCF)cc(OC)c1OC | 2.2
C=CCN1C[C@H](OCCCO)C[C@H]1CNC(=O)c1cc(CCCF)cc(OC)c1OC | 1.9
